All values here come from ChEMBL document CHEMBL1138948.

pEC50 values by entry
Assayed target: UniProtKB P32245
Sequence (P32245 whole entry): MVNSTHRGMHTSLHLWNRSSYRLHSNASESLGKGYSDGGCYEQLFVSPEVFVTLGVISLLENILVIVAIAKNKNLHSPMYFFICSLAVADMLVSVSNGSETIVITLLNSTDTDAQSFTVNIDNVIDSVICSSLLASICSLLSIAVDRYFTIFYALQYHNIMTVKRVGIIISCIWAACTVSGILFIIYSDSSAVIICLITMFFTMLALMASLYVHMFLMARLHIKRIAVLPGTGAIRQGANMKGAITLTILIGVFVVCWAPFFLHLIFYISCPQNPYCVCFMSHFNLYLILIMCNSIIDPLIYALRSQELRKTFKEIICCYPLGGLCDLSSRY
Test name: Agonist activity at human MC4R transfected in HEK293 cells
On this scale, pEC50 is minus log10 of a concentration expressed in M (mol/L).

Example entries begin here.
NC(N)=NCCC[C@H]1C[C@@H](OCc2ccc3ccccc3c2)CN1C(=O)[C@H](N)Cc1ccccc1 :: 6.54
CC(=O)N[C@@H](Cc1ccc(O)cc1)C(=O)N[C@H](Cc1ccccc1)C(=O)N1C[C@@H](OCc2ccc3ccccc3c2)C[C@H]1CCCN=C(N)N :: 6.60
CC(=O)N[C@@H](Cc1ccc(O)cc1)C(=O)N[C@H](Cc1ccccc1)C(=O)N1C[C@@H](OCc2ccc3ccccc3c2)C[C@@H]1CCCN=C(N)N :: 7.41

Data request: Look up pEC50 of N=C(N)NCCC[C@@H]1C[C@@H](OCc2ccc3ccccc3c2)CN1C(=O)[C@@H](Cc1ccccc1)NC(=O)[C@@H]1Cc2ccccc2CN1 and report it.
Data returned: 5.96

###

Test name: Absorptive permeability across Caco-2 cell membrane
Assay type: ADME, cell-based
Particulars: human, read-out: permeability (converted)
Papp A→B values by entry
The response must be a number in ×10⁻⁶ cm/s with no trailing unit.

Example entries begin here.
CC(=O)N[C@H](Cc1ccccc1)C(=O)N1C[C@H](OCc2ccc3ccccc3c2)C[C@@H]1CCCN=C(N)N :: 7.5
CC(=O)N[C@@H](Cc1cnc[nH]1)C(=O)N[C@H](Cc1ccccc1)C(=O)N1C[C@H](OCc2ccc3ccccc3c2)C[C@@H]1C(=O)NCCN=C(N)N :: 1

Data request: Look up Papp A→B of OC[C@@H](O)[C@@H](O)[C@H](O)[C@H](O)CO and report it.
Data returned: 2.17

###

Assayed target: Melanocyte-stimulating hormone receptor (Homo sapiens, UniProt Q01726)
Sequence (Q01726 whole entry): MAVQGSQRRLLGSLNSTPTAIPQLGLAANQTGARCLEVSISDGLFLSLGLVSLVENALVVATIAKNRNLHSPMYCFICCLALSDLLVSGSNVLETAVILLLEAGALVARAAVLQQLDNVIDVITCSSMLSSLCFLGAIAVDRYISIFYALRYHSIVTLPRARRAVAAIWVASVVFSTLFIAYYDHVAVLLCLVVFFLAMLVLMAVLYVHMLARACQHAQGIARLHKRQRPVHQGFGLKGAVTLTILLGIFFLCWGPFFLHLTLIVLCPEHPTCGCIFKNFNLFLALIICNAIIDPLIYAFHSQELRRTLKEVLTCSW
Quantity kind: pKi
On this scale, pKi is minus log10 of a concentration expressed in M (mol/L).

NC(N)=NCCC[C@H]1C[C@@H](OCc2ccc3ccccc3c2)CN1C(=O)[C@H](N)Cc1ccccc1 :: 6.42
CC(=O)N[C@@H](Cc1c[nH]cn1)C(=O)N[C@H](Cc1ccccc1)C(=O)N1C[C@@H](OCc2ccc3ccccc3c2)C[C@H]1CCCN=C(N)N :: 5.53
N=C(N)NCCC[C@@H]1C[C@@H](OCc2ccc3ccccc3c2)CN1C(=O)[C@@H](Cc1ccccc1)NC(=O)[C@@H]1Cc2ccccc2CN1 :: 7.72

Data request: Look up pKi of CC(=O)N[C@@H](CCC(N)=O)C(=O)N[C@H](Cc1ccccc1)C(=O)N1C[C@H](OCc2ccc3ccccc3c2)C[C@@H]1CCCN=C(N)N and report it.
Data returned: 7.46

Data request: Look up pKi of NC(=O)C[C@H](N)C(=O)N[C@H](Cc1ccccc1)C(=O)N1C[C@@H](OCc2ccc3ccccc3c2)C[C@H]1CCCN=C(N)N and report it.
Data returned: 5.80

Data request: Look up pKi of NC(N)=NCCNC(=O)[C@H]1C[C@@H](OCc2ccc3ccccc3c2)CN1C(=O)[C@@H](Cc1ccccc1)NC(=O)[C@@H](N)Cc1c[nH]cn1 and report it.
Data returned: 7.82

Data request: Look up pKi of NC(N)=NCCC[C@H]1C[C@@H](OCc2ccc3ccccc3c2)CN1C(=O)[C@@H](Cc1ccccc1)NC(=O)CCc1ccccc1 and report it.
Data returned: 6.21

Data request: Look up pKi of N=C(N)NCCNC(=O)[C@H]1C[C@@H](OCc2ccc3ccccc3c2)CN1C(=O)[C@@H](Cc1ccccc1)NC(=O)[C@@H]1CCCCN1 and report it.
Data returned: 6.20

Data request: Look up pKi of N=C(N)NCCC[C@@H]1C[C@H](OCc2ccc3ccccc3c2)CN1C(=O)[C@@H](Cc1ccccc1)NC(=O)[C@@H]1Cc2ccccc2CN1 and report it.
Data returned: 5.85
